target.entity: Bifunctional purine biosynthesis protein ATIC (Homo sapiens)
Sequence (P31939 whole entry): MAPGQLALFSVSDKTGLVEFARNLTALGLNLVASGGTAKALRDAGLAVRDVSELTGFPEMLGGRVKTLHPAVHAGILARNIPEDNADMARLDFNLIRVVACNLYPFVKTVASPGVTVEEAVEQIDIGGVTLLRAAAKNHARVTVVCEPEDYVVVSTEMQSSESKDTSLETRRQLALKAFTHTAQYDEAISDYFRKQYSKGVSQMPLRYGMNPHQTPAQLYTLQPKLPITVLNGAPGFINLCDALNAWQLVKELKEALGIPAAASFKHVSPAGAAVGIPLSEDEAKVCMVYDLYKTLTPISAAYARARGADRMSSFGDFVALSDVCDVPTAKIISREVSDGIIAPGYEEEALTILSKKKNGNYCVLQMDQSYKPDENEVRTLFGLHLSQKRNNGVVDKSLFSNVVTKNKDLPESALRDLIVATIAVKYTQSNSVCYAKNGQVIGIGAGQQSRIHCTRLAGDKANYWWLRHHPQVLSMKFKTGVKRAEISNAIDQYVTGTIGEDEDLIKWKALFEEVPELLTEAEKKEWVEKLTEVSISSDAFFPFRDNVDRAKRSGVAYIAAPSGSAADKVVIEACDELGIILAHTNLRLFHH
experiment.notes: Inhibition of human AICAR Tfase
quantity: Ki (µM)
Provide the reading as a plain figure in µM.

*Q* Would you kindly share the measured Ki for NS(=O)(=O)c1cccc2cc(/N=N/c3cccc4c(S(=O)(=O)O)cccc34)ccc12 ?
*A* 0.154
